# assay procedure: Intrinsic clearance in human hepatocytes assessed per million cells
# Type: ADME, cell-based, Hepatocyte
# conditions used: read-out: CLH
property measured: hepatocyte CLint (µL/min/1e6 cells)

substance smiles: NC(=O)CN1CCN(Cc2nc(-c3cn(CC4CCOCC4)c4c(Cl)cccc34)no2)CC1
assay value: 3

====

# target or system: Cannabinoid receptor 1 (Homo sapiens)
# Sequence (P21554 whole entry): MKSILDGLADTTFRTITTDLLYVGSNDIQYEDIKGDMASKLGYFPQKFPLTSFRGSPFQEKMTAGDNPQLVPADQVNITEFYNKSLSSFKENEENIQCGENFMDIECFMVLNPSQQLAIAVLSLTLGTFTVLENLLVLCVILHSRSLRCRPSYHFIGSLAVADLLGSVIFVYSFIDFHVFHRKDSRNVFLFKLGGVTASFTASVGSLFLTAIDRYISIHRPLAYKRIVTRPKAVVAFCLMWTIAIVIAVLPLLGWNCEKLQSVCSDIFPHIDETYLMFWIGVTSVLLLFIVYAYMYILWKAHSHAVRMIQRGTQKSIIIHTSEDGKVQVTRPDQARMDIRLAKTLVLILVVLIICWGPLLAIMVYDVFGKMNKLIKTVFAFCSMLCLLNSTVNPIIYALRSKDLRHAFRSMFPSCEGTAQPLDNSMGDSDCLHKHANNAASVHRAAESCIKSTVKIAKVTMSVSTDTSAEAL
# assay procedure: Agonist activity at CB1 receptor
pEC50: −log10 of the molar value.

substance smiles: O=C(NCCO)C1CCN(Cc2nc(-c3cn(CC4CCS(=O)(=O)CC4)c4c(Cl)cccc34)no2)CC1
pEC50: 6.00
//
substance smiles: O=C(NCCO)[C@H]1CCCN(Cc2nc(-c3cn(CC4CCS(=O)(=O)CC4)c4c(Cl)cccc34)ns2)C1
pEC50: 7.70
//
substance smiles: COc1cccc2c(-c3noc(CN4CCC(C(=O)NCCO)CC4)n3)cn(CC3CCOCC3)c12
pEC50: 6.20
//
substance smiles: COc1cccc2c(-c3noc(CN(C)CC(N)=O)n3)cn(CC3CCOCC3)c12
pEC50: 5.60
//
substance smiles: O=C(NCCO)C1CCN(Cc2nc(-c3cn(CC4CCOCC4)c4c(Cl)cccc34)ns2)CC1
pEC50: 7.10
//
substance smiles: COc1cccc2c(-c3nsc(CN4CCN(CC(N)=O)CC4)n3)cn(CC3CCOCC3)c12
pEC50: 7.10
//
substance smiles: CN(CC(N)=O)Cc1nc(-c2cn(CC3CCS(=O)(=O)CC3)c3c(Cl)cccc23)ns1
pEC50: 6.80
//
substance smiles: NC(=O)CN1CCN(Cc2nc(-c3cn(CC4CCOCC4)c4c(Cl)cccc34)ns2)CC1
pEC50: 7.20
//
substance smiles: NC(=O)CN1CCN(Cc2nc(-c3cn(CC4CCS(=O)(=O)CC4)c4c(Cl)cccc34)no2)CC1
pEC50: 6.30

====

# assay procedure: Intrinsic clearance in human liver microsomes
# Format: ADME, Microsome
# conditions used: read-out: CLH

substance smiles: O=C(NCCO)C1CCN(Cc2nc(-c3cn(CC4CCS(=O)(=O)CC4)c4c(Cl)cccc34)no2)CC1
microsomal CLint: < 12 µL/min/mg

substance smiles: NC(=O)CN1CCN(Cc2nc(-c3cn(CC4CCS(=O)(=O)CC4)c4c(Cl)cccc34)ns2)CC1
microsomal CLint: < 12 µL/min/mg

substance smiles: NC(=O)CN1CCN(Cc2nc(-c3cn(CC4CCS(=O)(=O)CC4)c4c(Cl)cccc34)no2)CC1
microsomal CLint: < 12 µL/min/mg

====

In this section, each of the compounds is paired with its reported microsomal CLint.
# assay procedure: Intrinsic clearance in rat liver microsomes
# Type: ADME, Microsome
# conditions used: read-out: CLH

substance smiles: NC(=O)CN1CCN(Cc2nc(-c3cn(CC4CCOCC4)c4c(Cl)cccc34)no2)CC1
microsomal CLint: < 12 µL/min/mg

substance smiles: NC(=O)CN1CCN(Cc2nc(-c3cn(CC4CCS(=O)(=O)CC4)c4c(Cl)cccc34)ns2)CC1
microsomal CLint: < 12 µL/min/mg

substance smiles: O=C(NCCO)C1CCN(Cc2nc(-c3cn(CC4CCS(=O)(=O)CC4)c4c(Cl)cccc34)no2)CC1
microsomal CLint: < 12 µL/min/mg
